Let's look at some compounds and their measured growth.
- System: TK-10 renal
- EXPERIMENTAL_PROTOCOL: NCI-60 one-dose screen, 48 h (100 = growth as untreated, 0 = no growth, -100 = all killed)
- CONDITION_NOTES: 10 µM unless noted
The panel holds about 83,000 compounds, 20% with a hit somewhere; the sample as a whole holds those more often.
EXPERIMENTAL_READOUT: growth (%)

>>> df
                                  structure  system_under_test  experimental_readout  meas_value
0  CS(=O)(=O)c1nccc(-c2c(-c3ccc(F)c(OCCc4ccc(F)cc4)c3)nc3sccn23)n1        TK-10 renal                growth        84.8
1  Clc1ccc(-c2csc(N/N=C/c3nc4ccccc4n3C3CC3)n2)cc1        TK-10 renal                growth        85.6
2  COc1ccc(/C=C/C(=O)c2nnn(-c3ccc(Br)cc3)c2C)cc1OC        TK-10 renal                growth        95.4
3             COc1ccc(CCN2C(=O)CSC2=S)cc1OC        TK-10 renal                growth        55.6
4  C/C(Cc1ccc(Cl)cc1)=C(/c1ccccc1)c1ccc(OCCN)cc1        TK-10 renal                growth         100

Values compiled from PubChem BioAssay (NCI).
